Data provenance: PubChem BioAssay

- experimental-details: small molecules captured by biotinylated probe aFGF2 – biochemical, small-molecule microarray, fluorescence 635/667, stem cell growth factor project, primary screen (AID 1067);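 note: measures binding of biotinylated aFGF2 protein to printed compounds on slides; z-score merges feature fluorescence and signal-to-noise across triplicate slides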
- experimental-context: higher = more signal
property-name: composite z-score
Give bare numbers.

Recorded composite z-score, per entry:
>  <molecule>
CC1CC/C=C\[C@H]2OC34C=CCN(Cn5nnc6ccccc65)C(=O)[C@H]3N(CCCCCCO)C(=O)[C@@H]4C2C(=O)O1 (some centres not stated)

>  <property-name>
composite z-score

>  <value-observed>
-0.176

$$$$
>  <molecule>
CC1CC/C=C\[C@H]2OC34C=CCN(Cc5ccccc5)C(=O)[C@H]3N(CCCCCCO)C(=O)[C@@H]4C2C(=O)O1 (some centres not stated)

>  <property-name>
composite z-score

>  <value-observed>
-0.116

$$$$
>  <molecule>
N#Cc1ccc(-c2cccc(=O)o2)cc1

>  <property-name>
composite z-score

>  <value-observed>
-0.103

$$$$
>  <molecule>
COc1ccc(C(=O)Nc2ccc(CN3C(=O)[C@@]4(O[C@@H](CCn5cc(CCO)nn5)[C@H]([Si](C)(C)c5ccc(OC)cc5)[C@H]4C)c4ccccc43)cc2)cc1

>  <property-name>
composite z-score

>  <value-observed>
-0.0613

$$$$
>  <molecule>
CCCCCCc1nc(Cc2cc(OC)c(OC)c(OC)c2)cc2c1[Si](C(C)C)(C(C)C)O[C@H]2c1ccccc1

>  <property-name>
composite z-score

>  <value-observed>
-0.0599

$$$$
>  <molecule>
Cc1ccc(S[C@]2(C(=O)NCC(F)(F)F)CC(=O)N(Cc3ccccc3C(F)(F)F)[C@@H]2c2ccc(CO)cc2)cc1

>  <property-name>
composite z-score

>  <value-observed>
-0.1

$$$$

# evaluate next
query: Given "COC(=O)[C@@]1(Cc2ccccc2)[C@H]2c3cc(C(=O)N4CCCC4)n(Cc4ccc(OC)c(OC)c4)c3C[C@H]2CN1C(=O)c1ccccc1" , state its recorded composite z-score.
result: 0.141
